These entries and their values trace back to patent US20240270853A1.

Target: T1, Recombinant mouse DDR2 ECD-Fc (R&D systems, Cat. No. 7479-DR-050) (mouse, UniProt Q62371 22-399, biotinylated)
T1 construct: Bought protein; not shown: Fc part of the bought fusion protein, not described
T1 sequence: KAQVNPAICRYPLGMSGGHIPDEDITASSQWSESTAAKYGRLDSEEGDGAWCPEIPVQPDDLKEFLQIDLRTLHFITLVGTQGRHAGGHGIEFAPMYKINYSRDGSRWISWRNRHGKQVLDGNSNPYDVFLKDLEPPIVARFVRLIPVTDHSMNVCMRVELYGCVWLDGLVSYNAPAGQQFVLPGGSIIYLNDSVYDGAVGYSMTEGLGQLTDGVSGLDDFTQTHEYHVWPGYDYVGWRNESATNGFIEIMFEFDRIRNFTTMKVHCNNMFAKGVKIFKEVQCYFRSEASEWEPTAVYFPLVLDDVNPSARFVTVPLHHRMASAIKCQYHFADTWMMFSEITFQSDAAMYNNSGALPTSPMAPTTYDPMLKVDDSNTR
Assay: Octet tandem binning on captured mouse DDR2 ECD-Fc; competitor Ab1 (bound first) DAB0048
Procedure: Competitive epitope binning experiment was performed by real-time binding assay using Octet (Pall ForteBio). Recombinant mouse DDR2 ECD-Fc (R&D systems, Cat. No. 7479-DR-050) was biotinylated and captured onto streptavidin biosensor tips (Pall ForteBio) as antigen. The antigen captured tips were dipped into 15 or 40 microgram (micro g)/mL of a first set of antibodies for 300 seconds. […] Result was analyzed by DATA Analysis HT software (Pall ForteBio, Version 10.0.1.7). […]
Each record here notes measured Octet response of Ab2.
quantity_name: Octet response of Ab2

- DAB0069 (antibody, V domains shown, Variable regions from immunized rabbits) VH: QSLEESGGRLVTPGTPLTLTCTASGFSLSNYYMQWVRQAPGKGLEWIGIVYPGSSAYYANWAKGRFTISKTSTTVDLKMTSLTTEDTATYFCAGSSNSVYSFNLWGQGTLVTVSS VL: AYDMTQTPSSVSAAVGGTVTIKCQASESIYRSLAWYQQKPGQPPKLLIYSASTLTSGVSSRFKGSGSGTEFTLTISDLECADAGTYYCQQGGSFSNIVNTFGGGTKVEIK: 1.57
- DAB0060 (antibody, V domains shown, Variable regions from immunized rabbits) VH: QSVEESGGRLVTPGTALTLTCTASGFSLSSYDMSWVRQAPGEGLEWIGTIFTEGSTSCASWVKGRFTISRTSTTVDLKITSPTTEDTATYFCVRGTTSNRLWGQGTLVTVSS VL: DVVMTQTPASVEAVVGATVTIRCQASESITNYLSWYQQKPGQPPKVLIYYASTLESGVPSRFKGSGSGTQFTLTISDLECADAATYYCQSNYFSSSYSYGNTFGGGTKVEIK: 0.82
- DAB0048 (antibody, V domains shown, Variable regions from immunized rabbits) VH: QSVEESGGRLITPGTPLTLTCTASGFSLSIYYMIWVRQAPGKGLEWIGYIWSGSTTDYASWAKGRFTISKTSTTVDLKITSPTTEDTATYFCARVYAGYGYGSDLWGQGTLVTVSS VL: AAVLTQTPSPVSAAVGGTVSISCQSSQSVYNNNWLAWYQQKPGQPPKLLIYSASTLASGVPSRFKGSGSGTQFTLTISDVQCDDAATYYCAGGYSTNSDKNAFGGGTKVEIK: 0
